Molecular target: T1, human IGSF11 (VSIG3) expressed on cells (human, UniProt Q5DX21 23-431)
T1 sequence: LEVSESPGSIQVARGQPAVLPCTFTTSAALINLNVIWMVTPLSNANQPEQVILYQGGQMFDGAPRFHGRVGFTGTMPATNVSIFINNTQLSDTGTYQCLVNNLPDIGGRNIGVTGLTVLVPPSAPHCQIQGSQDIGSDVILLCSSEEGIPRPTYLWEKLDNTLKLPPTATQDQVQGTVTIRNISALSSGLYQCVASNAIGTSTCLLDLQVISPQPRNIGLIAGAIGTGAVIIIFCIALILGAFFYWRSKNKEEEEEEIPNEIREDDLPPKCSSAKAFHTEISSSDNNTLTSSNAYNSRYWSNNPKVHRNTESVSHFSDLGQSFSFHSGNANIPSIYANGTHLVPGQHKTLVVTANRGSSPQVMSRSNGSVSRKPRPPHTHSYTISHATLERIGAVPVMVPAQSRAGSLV
Assay: FACS, M579-A2-luc cells with scrambled control siRNA (SC)
Endpoint: % binding (FACS heat-map) (%)
Numbers only, in %.

Worked examples follow.
Binder | Numeric Readout
A-027 (IgG1 format) (antibody, V domains shown, human IgG1 format) VH: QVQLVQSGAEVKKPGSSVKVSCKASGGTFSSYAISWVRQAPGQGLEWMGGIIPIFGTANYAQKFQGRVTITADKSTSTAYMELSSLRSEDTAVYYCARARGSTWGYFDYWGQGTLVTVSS VL: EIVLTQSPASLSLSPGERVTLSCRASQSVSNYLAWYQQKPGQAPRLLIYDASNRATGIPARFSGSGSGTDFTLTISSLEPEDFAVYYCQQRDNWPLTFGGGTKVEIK | 3.32
B-002 (chain-swapped IgG1) (antibody, V domains shown, human IgG1 format; also called B2) VH: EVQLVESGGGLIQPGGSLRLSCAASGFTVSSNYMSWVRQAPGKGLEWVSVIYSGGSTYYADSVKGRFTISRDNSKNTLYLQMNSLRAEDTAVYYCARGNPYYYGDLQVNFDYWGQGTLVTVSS VL: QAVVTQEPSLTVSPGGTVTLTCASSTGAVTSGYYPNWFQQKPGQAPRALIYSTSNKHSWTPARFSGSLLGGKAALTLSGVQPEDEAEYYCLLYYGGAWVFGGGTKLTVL | 70.7

Now look at this one.
q: Data request, read-out % binding (FACS heat-map), for A-006 (IgG1 format) (antibody, V domains shown, human IgG1 format; also called A-006-like ABP) VH: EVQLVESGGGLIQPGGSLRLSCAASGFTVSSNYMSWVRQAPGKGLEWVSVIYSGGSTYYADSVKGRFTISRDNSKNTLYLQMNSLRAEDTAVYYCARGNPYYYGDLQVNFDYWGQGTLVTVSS VL: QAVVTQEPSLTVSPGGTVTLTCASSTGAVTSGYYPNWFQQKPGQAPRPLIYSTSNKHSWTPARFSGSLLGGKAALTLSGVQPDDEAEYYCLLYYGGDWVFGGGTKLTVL
a: 75.3

These entries and their values trace back to patent US20220372138A1.
